study_target: H-2 K^k (Mus musculus)
Sequence (P01887 21-119): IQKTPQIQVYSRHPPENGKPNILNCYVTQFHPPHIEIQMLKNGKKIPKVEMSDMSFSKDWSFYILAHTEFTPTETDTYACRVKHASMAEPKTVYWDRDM
Sequence (P04223 22-369): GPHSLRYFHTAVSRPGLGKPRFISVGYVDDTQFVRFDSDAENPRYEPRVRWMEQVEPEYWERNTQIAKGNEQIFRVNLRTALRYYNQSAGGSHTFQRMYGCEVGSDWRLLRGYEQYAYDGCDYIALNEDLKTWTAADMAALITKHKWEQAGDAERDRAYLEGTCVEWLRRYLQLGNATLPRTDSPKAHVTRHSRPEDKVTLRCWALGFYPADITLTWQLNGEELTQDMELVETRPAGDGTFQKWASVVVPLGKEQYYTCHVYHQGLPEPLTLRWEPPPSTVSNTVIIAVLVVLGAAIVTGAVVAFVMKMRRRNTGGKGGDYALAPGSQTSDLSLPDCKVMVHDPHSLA
Assay type: binding
Consider the following sequences; for each one, report its Normalized average relative binding affinity (ARB), H-2 Kk.
Write no unit; give the number alone.

Observed Normalized average relative binding affinity (ARB), H-2 Kk, H-2 K^k (Mus musculus), XXNXXXXXX [3064.0052] : 0.40

Observed Normalized average relative binding affinity (ARB), H-2 Kk, H-2 K^k (Mus musculus), XXFXXXXXX [3064.0045] : 0.39

Observed Normalized average relative binding affinity (ARB), H-2 Kk, H-2 K^k (Mus musculus), XXKXXXXXX [3064.0049] : 0.39

====

study_target: HLA A*6802 (Homo sapiens, UniProt P04439, A269V/D140Y/D185E/E176V/E277Q/E87N/F33Y/G231S/I121R/I166T/I218V/L180W/L300P/L318F/N151K/P208A/P217A/Q86R/R138H/R169H/S129P/T345S/V36M)
Type: binding
measurement_type: Normalized average relative binding affinity (ARB), HLA A*6802
Write no unit; give the number alone.

Reported Normalized average relative binding affinity (ARB), HLA A*6802 ( XDXXXXXXX [3064.0023] ) = 0.0075

Reported Normalized average relative binding affinity (ARB), HLA A*6802 ( YXXXXXXXX [3064.0020] ) = 0.24

Reported Normalized average relative binding affinity (ARB), HLA A*6802 ( TXXXXXXXX [3064.0017] ) = 0.29

Reported Normalized average relative binding affinity (ARB), HLA A*6802 ( LXXXXXXXX [3064.0010] ) = 0.071

Reported Normalized average relative binding affinity (ARB), HLA A*6802 ( XXAXXXXXX [3064.0041] ) = 0.0051

Reported Normalized average relative binding affinity (ARB), HLA A*6802 ( HXXXXXXXX [3064.0007] ) = 0.53

Reported Normalized average relative binding affinity (ARB), HLA A*6802 ( XGXXXXXXX [3064.0026] ) = 0.014

Reported Normalized average relative binding affinity (ARB), HLA A*6802 ( KXXXXXXXX [3064.0009] ) = 0.013

Reported Normalized average relative binding affinity (ARB), HLA A*6802 ( XMXXXXXXX [3064.0031] ) = 0.055

Reported Normalized average relative binding affinity (ARB), HLA A*6802 ( SXXXXXXXX [3064.0016] ) = 0.41

Reported Normalized average relative binding affinity (ARB), HLA A*6802 ( XXGXXXXXX [3064.0046] ) = 0.061

Reported Normalized average relative binding affinity (ARB), HLA A*6802 ( XHXXXXXXX [3064.0027] ) = 0.0031

Reported Normalized average relative binding affinity (ARB), HLA A*6802 ( DXXXXXXXX [3064.0003] ) = 0.21
